These entries and their values trace back to ChEMBL document CHEMBL5241097.

# Target Of Assay: Polyunsaturated fatty acid 5-lipoxygenase (Homo sapiens, UniProt P09917)
# Sequence (P09917 whole entry): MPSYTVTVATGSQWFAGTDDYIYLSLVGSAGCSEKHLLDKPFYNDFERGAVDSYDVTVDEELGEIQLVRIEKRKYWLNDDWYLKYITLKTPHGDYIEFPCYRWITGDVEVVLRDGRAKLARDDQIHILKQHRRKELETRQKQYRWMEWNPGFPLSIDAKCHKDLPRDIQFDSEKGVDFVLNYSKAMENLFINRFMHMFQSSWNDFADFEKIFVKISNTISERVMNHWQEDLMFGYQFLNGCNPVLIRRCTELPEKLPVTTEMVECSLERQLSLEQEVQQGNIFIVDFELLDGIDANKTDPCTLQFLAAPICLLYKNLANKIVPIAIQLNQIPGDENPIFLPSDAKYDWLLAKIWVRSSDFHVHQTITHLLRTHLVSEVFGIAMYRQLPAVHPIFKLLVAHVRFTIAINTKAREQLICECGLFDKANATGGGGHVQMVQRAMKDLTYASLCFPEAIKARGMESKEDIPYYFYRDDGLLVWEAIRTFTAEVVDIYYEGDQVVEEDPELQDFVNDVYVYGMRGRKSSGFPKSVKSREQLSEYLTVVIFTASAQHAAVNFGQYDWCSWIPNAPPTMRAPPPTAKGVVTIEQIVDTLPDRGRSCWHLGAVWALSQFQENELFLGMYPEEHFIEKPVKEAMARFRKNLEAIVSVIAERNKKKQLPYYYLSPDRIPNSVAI
# Procedure Summary: Inhibition of recombinant human 5-LOX using arachidonic acid as substrate incubated for 10 mins by spectrophotometric analysis
Parameter: pIC50
One number for each entry, as −log10 of the molar value.

C=C1CCCC2C1(C)CCC(C)C2(C)CCC1=CC(=O)OC1O (centres undefined) ... 4.90

Provide reported pIC50 for each item, in the same order as listed.
1. CC1=CCCC2C1(C)CCC(C)C2(C)CC/C(=C\C(=O)O)CO (centres undefined)
2. CC1=CCCC2C1(C)CCC(C)C2(C)CCC1=CC(=O)OC1O (centres undefined)
3. C=C1C(O)CCC2C1(C)CCC(C)C2(C)CCC1=CC(=O)OC1O (centres undefined)

1: 4.52; 2: 4.84; 3: 4.78
